Biological target: T1, TAM-AT1-AT2 Baz2B (Homo sapiens, UniProt Q9UIF8 721-884)
T1 sequence: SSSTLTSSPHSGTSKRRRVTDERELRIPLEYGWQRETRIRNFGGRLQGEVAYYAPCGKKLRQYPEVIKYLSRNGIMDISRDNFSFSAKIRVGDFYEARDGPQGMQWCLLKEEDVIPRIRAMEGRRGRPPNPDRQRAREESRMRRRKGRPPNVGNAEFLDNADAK
Assay: MST; EMSA: 20 mM HEPES pH 7.5, 30 mM KCl, 1 mM EDTA, 10 mM (NH4)2SO4, 1 mM DTT, 4 C, 10 nM probe; MST: same plus 0.1 ug/ml BSA, 5 nM probe, 25 C; GST-AT-hook and bromodomain EMSA as in cited refs
Details: protein: recombinant; tags: His6; label: 5' Cy5
Measured metric: pKd
On this scale, pKd is minus log10 of a concentration expressed in M (mol/L).

Ask | pKd for GGGGGGUCAUUUUUGGGGAAACCCUGUCUCUUUCC (structured_RNA) [pRNAmini] ?
Reply | 6.54
